- TARGET_ENTITY: ADAMTS-7 (Homo sapiens, UniProt Q9UKP4, A119V/A123T/A127T/A171V/A193G/A200T/A28V/A36P/A42G/A66V/A78S/A97T/D77A/DEL186-188/DEL228-233/E133D/E190K/E213K/E83Q/G114S/G115N/G117S/G196D/G27H/H100Y/H124S/H234Q/K153R/L143F/L192S/L20I/P189H/P201S/P29L/P33S/P79S/Q99P/R118N/R122Q/R174Q/R195Q/R215Q/R218H/R35L/R75A/R76Q/R87Q/R92L/S170E/S199R/S202G/S214H/T110I/T125V/V182M/V208G/V74A/W225K/Y209S)
- Construct: rat ADAMTS-7 signal peptide + prodomain (rat 1-217), fusion partner (N); 2xStrep tag (C); 6xHis tag (C)
- Sequence (Q9UKP4 with tags, fused parts or gaps with the stated changes): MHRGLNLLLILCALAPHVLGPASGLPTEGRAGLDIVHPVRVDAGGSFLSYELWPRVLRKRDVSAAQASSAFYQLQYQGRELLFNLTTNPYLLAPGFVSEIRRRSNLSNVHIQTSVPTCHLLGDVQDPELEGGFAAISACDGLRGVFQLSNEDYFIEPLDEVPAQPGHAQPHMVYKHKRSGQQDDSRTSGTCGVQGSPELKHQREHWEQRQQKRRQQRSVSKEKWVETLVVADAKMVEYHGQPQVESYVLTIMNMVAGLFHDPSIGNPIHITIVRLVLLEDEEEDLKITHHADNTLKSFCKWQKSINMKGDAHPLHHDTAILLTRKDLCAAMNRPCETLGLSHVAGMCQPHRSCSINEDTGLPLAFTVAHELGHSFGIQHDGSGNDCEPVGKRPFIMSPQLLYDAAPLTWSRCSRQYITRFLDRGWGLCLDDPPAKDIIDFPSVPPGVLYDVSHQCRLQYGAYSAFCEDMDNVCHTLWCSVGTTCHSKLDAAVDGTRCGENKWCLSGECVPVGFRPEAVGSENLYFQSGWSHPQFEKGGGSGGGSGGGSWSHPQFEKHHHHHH
- MEASUREMENT_NOTES: ADAMTS-7 enzymatic activity FRET assay, testing of inhibitory compounds
- Protocol: Purified recombinant ADAMTS-7 (as of SEQ ID NO: 1 or SEQ ID NO: 2) was diluted in reaction buffer (20 mM HEPES pH 8.0, 150 mM NaCl, 5 mM CaCl2, 0.004% Brij, 10 μM ZnCl2) for a concentration of approximately 20 nM. […] The increase of fluorescence intensity was measured in appropriate fluorescence plate reader (e.g. TECAN Ultra) using excitation wavelength of 485 nm and emission wavelength of 520 nm. […]
PARAMETER: IC50 (nM)

| MOLECULE | PARAMETER | UOM | MEASURED_NUMBER |
| --- | --- | --- | --- |
| CC(C)(C)C1(CNC(=O)c2cnc(-c3ccccc3)o2)NC(=O)NC1=O (racemic) | IC50 | nM | 480 |
| Cn1cc(-c2cc(C(=O)NC[C@@]3(C4CC4)NC(=O)NC3=O)on2)cn1 | IC50 | nM | 52 |
| O=C1NC(=O)[C@](CNC(=O)c2cc(-c3cnn(CC4CC4)c3)no2)(C2CC2)N1 | IC50 | nM | 550 |

I: O=C1NC(=O)[C@](CNC(=O)c2cnn(-c3cnccn3)n2)(C2CC2)N1
II: O=C1NC(=O)[C@](CNC(=O)c2cnn(-c3ccc(F)cn3)n2)(C2CC2)N1
Identify the entry with the larger IC50. Options: I and II Answer by quoting the chosen item's label.
I
